# TARGET: Human Polymorphonuclear Leukocyte Elastase (Homo sapiens)
# Construct: Crude extract of human polymorphonuclear leukocytes (PMN) containing elastase activity; endogenous in cells; host or cells: human polymorphonuclear leukocytes (PMN), crude extract
# Sequence (P08246 30-247 limits assumed): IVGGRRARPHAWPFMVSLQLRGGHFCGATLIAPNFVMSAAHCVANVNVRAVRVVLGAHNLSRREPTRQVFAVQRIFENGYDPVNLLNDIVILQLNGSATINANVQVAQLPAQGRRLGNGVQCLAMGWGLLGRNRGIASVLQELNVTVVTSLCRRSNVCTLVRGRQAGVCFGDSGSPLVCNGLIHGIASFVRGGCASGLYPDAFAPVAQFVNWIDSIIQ
# PROTOCOL DESCRIPTION: Inhibition of human polymorphonuclear leukocyte elastase via hydrolysis of Boc-AAPAN
# Type: biochemical
# MEASUREMENT SETUP: effective dosage for 50% inhibition of the enzyme activity 2 minutes after zero time; crude PMN extract, 0.2 mM Boc-AAPAN, pH 7.5; read-out: ED50 (the source's name) (converted)
MEASURE: IC50 (µM)

[[record]]
compound = "COC1(NC(=O)C(C(=O)OCc2ccccc2)c2ccc(O)cc2)C(=O)N2C(C(=O)OCc3ccccc3)=C(C)COC21 (stereo not shown)"
measure = "IC50"
recorded_number = 29


I = CC1=C(C(=O)OCc2ccccc2)N2C(=O)C(NC(=O)c3ccccc3)C2OC1 (stereo not shown)
II = CC1=COC2C(NC(=O)c3ccccc3)C(=O)N2C1C(=O)OCc1ccccc1 (stereo not shown)
Select the item whose IC50 value is smaller, choosing between I and II . Your answer should be the label of the entry you select.
II
(II: 12.7 µM, I: 51 µM)
